# testProtocol: RP, Waters ACQUITY UPLC BEH C18, 100 × 2.1 mm, 1.7 µm, 65 °C, 0.4 mL/min, estimated dead time 0.55 min; A: water + 0.1% formic acid, pH 3; B: 80% acetonitrile + 20% acetone + 0.1% formic acid, pH 3; gradient (min/%B) 0/0 5/100 5.5/0 6/0
# experimentalSetup: stereoisomer not certain
endpointLabel: LC retention time (min)
State just the number; it will be interpreted in min.

compound: Cn1c(=O)[nH]c(=O)c2[nH]cnc21 [3-Methylxanthine]
LC retention time [min]: 1.3
//
compound: O=C(O)Cc1c[nH]c2ccc(O)cc12 [5-Hydroxyindole-3-acetic acid]
LC retention time [min]: 1.61
//
compound: NCCc1ccc(OS(=O)(=O)O)c(O)c1 [Dopamine 4-O-sulfate]
LC retention time [min]: 1.3

Item: O=C(O)CNC(=O)C=Cc1c[nH]c2ccccc12 [Indole-3-acryloylglycine] | LC retention time: 2.13

Item: CC(=O)CCC(=O)O [Levulinic acid] | LC retention time: 1.4

Item: O=C(O)c1ccc[nH]1 [Pyrrole-2-carboxylic acid] | LC retention time: 1.68

Item: CC(O)C1NC(=O)C2CCCN2C1=O (stereo not drawn) [Cyclo(Pro-Thr)] | LC retention time: 1.37

Item: COc1cc(C=CC(=O)O)cc(OC)c1O [Sinapic acid] | LC retention time: 2.1

* * *

# testProtocol: RP, Phenomenex Synergi Hydro-RP, 150 × 2 mm, 4 µm, 30 °C, 0.5 mL/min, estimated dead time 0.6 min; A: water + 0.1% formic acid, pH 3; B: acetonitrile + 0.1% formic acid, pH 3; gradient (min/%B) 0/5 1/5 35/45 40/100 45/100
# experimentalSetup: stereoisomer not certain
Define the label as Criterion met when LC retention time is strictly less than 20 min and as Criterion not met in all remaining cases.

molecule: CC1CCC2(C(=O)O)CCC3(C)C(=CCC4C5(C)CCC(O)C(C)(C)C5CCC43C)C2C1C (stereo not given)
qualitativeLabel: Criterion not met

molecule: OCCc1ccc(O)c(O)c1 [hydroxytyrosol]
qualitativeLabel: Criterion met

molecule: O=c1ccc2c(O)c3ccoc3cc2o1
qualitativeLabel: Criterion not met

I wonder whether O=C(O)c1cc(O)c(O)c(O)c1 has LC retention time below 20 min. Can you tell?
Criterion met

I wonder whether O=c1c(O)c(-c2ccc(O)cc2)oc2cc(O)cc(O)c12 has LC retention time below 20 min. Can you tell?
Criterion not met

I wonder whether COc1cc(CC(=O)O)ccc1O has LC retention time below 20 min. Can you tell?
Criterion met

I wonder whether O=S(=O)(O)Oc1ccccc1O [Catechol O-sulfate] has LC retention time below 20 min. Can you tell?
Criterion met

I wonder whether COc1cc(CC2COC(c3ccc(O)c(OC)c3)C2CO)ccc1O (single isomer, unassigned; (+)) [(+)-Lariciresinol] has LC retention time below 20 min. Can you tell?
Criterion met

I wonder whether O=c1c(-c2ccc(O)cc2)coc2cc(O)cc(O)c12 has LC retention time below 20 min. Can you tell?
Criterion not met

* * *

# testProtocol: RP, Phenomenex Luna Omega Polar C18, 100 × 2.1 mm, 1.6 µm, 40 °C, 0.5 mL/min, estimated dead time 0.44 min; A: water + 0.1% formic acid + 10 mM ammonium formate; B: acetonitrile; gradient (min/%B) 0/5 8/20 10/100 12/100 12.1/5 14/5
# experimentalSetup: stereoisomer not certain
endpointLabel: LC retention time (min)
State just the number; it will be interpreted in min.

As a guide, the following entries are already answered.
compound: COc1ccc(C(=O)O)cc1OC
unitDescriptor: min
LC retention time: 6.87
--
compound: COc1cc(/C=C/C(=O)O)ccc1O
unitDescriptor: min
LC retention time: 6.79

Consider now this further compound.
Item: O=c1c(OS(=O)(=O)O)c(-c2ccc(O)c(O)c2)oc2cc(O)cc(O)c12 [Quercetin 3-O-sulfate] | LC retention time: 9.25

* * *

Entries and their measured LC retention time follow.
# testProtocol: RP, Phenomenex Luna Omega Polar C18, 100 × 2.1 mm, 1.6 µm, 40 °C, 0.5 mL/min, estimated dead time 0.44 min; A: water + 0.5% formic acid; B: acetonitrile + 0.5% formic acid; gradient (min/%B) 0/5 3/50 3.1/100 5/100 5.1/5 7/5
# experimentalSetup: stereoisomer not certain
State just the number; it will be interpreted in min.

compound: COc1cc(CC2COC(c3ccc(O)c(OC)c3)C2CO)ccc1O (single isomer, unassigned; (+)) [(+)-Lariciresinol]
LC retention time (min): 2.68
//
compound: O=C(O)CCc1ccc(O)cc1
LC retention time (min): 2.19

Consider now this further compound.
Item: CC1CCC2(C(=O)O)CCC3(C)C(=CCC4C5(C)CCC(O)C(C)(C)C5CCC43C)C2C1C (stereo not drawn) | LC retention time: 1.8

* * *

# testProtocol: RP, 150 × 2.1 mm, 2.6 µm, 40 °C, 0.35 mL/min, estimated dead time 0.94 min; A: water + 0.1% formic acid, pH 3; B: acetonitrile + 0.1% formic acid, pH 3; gradient (min/%B) 0/0 1/5 7/45 8.5/80 10.5/80 11/5 12/5
# experimentalSetup: stereoisomer not certain
endpointLabel: LC retention time (min)
State just the number; it will be interpreted in min.

Item: COc1cc2c(CCNC(C)=O)c[nH]c2cc1O [6-Hydroxymelatonin] | LC retention time: 5.05

Item: COc1cc(C(=O)O)cc(OC)c1O | LC retention time: 4.88

Item: COc1cc(C(=O)O)ccc1O | LC retention time: 3.36

Item: COc1cc(C=CC(=O)O)cc(OC)c1OC | LC retention time: 7.28

Item: O=C1c2c(O)cc(O)cc2OC(c2ccc(O)c(O)c2)C1O (stereo not drawn) | LC retention time: 5.86

Item: NCC(=O)c1ccccc1 | LC retention time: 6.86

Item: COc1cc(-c2oc3cc(O)cc(O)c3c(=O)c2OC2OC(CO)C(O)C(O)C2O)cc(OC)c1O (stereo not drawn) [Syringetin-3-glucoside] | LC retention time: 6.17

Item: COc1cc(C=O)cc(OC)c1O | LC retention time: 5.66

* * *

# testProtocol: RP, 50 × 0.5 mm, 2.7 µm, 35 °C, 0.01 mL/min, estimated dead time 0.62 min; A: water + 0.1% formic acid, pH 3; B: acetonitrile + 0.1% formic acid, pH 3; gradient (min/%B) 0/5 12/95 14/95 16/5
# experimentalSetup: stereoisomer not certain
endpointLabel: LC retention time (min)
State just the number; it will be interpreted in min.

As a guide, the following entries are already answered.
compound: COc1cc(C(=O)O)ccc1O
unitDescriptor: min
testResult: 2.97
--
compound: COc1cc(CC2COC(c3ccc(O)c(OC)c3)C2CO)ccc1O (single isomer, unassigned; (+)) [(+)-Lariciresinol]
unitDescriptor: min
testResult: 5.08

Item: COc1cc(CC(=O)O)ccc1O | LC retention time: 3.03

Item: O=c1c(O)c(-c2ccc(O)cc2)oc2cc(O)cc(O)c12 | LC retention time: 6.31

Item: O=C(O)C1OC(Oc2c(-c3ccc(O)cc3)oc3cc(O)cc(O)c3c2=O)C(O)C(O)C1O (stereo not drawn) [Kaempferol-3-O-glucuronide] | LC retention time: 4.81

Item: O=C(CCc1ccc(O)cc1)c1c(O)cc(O)cc1O | LC retention time: 6

* * *

# testProtocol: RP, Agilent ZORBAX RRHD Eclipse Plus C18, 50 × 2.1 mm, 1.8 µm, 30 °C, 0.4 mL/min, estimated dead time 0.28 min; A: water + 0.1% formic acid, pH 3; B: acetonitrile + 0.1% formic acid, pH 3; gradient (min/%B) 0/1 5/10 8/25 9.1/99 10/99 12/99
# experimentalSetup: stereoisomer not certain
endpointLabel: LC retention time (min)
State just the number; it will be interpreted in min.

compound: O=C(O)c1ccc(O)cc1 [4-Hydroxybenzoic acid]
unitDescriptor: min
LC retention time: 2.55

Item: O=C(O)C1OC(Oc2ccccc2O)C(O)C(O)C1O (centres undefined) [Catechol-O-1-glucuronide] | LC retention time: 3.09

Item: COc1cc(C=CC(=O)O)cc(OC)c1O | LC retention time: 7.99

Item: CC(Oc1ccc(O)cc1)C(=O)O (single isomer, unassigned; (+)) [(+)-2-(4-Hydroxyphenoxy)propionic acid] | LC retention time: 3.73

Item: O=C(O)C1OC(Oc2c(-c3ccc(O)cc3)oc3cc(O)cc(O)c3c2=O)C(O)C(O)C1O (centres undefined) [Kaempferol-3-O-glucuronide] | LC retention time: 8.79

Item: COc1ccc(C=CC(=O)O)cc1OC1OC(C(=O)O)C(O)C(O)C1O (centres undefined) [Isoferulic acid-3-O-glucuronide] | LC retention time: 6.38

Item: Oc1cc(O)c2c(c1)OC(c1ccc(O)c(O)c1)C(O)C2 (single isomer, unassigned; (+)) [(+)-Catechin] | LC retention time: 4.65

Item: O=C(O)CNC(=O)c1ccccc1O [2-Hydroxyhippuric acid] | LC retention time: 6.69

Item: O=Cc1ccc(O)cc1 [4-Hydroxybenzaldehyde] | LC retention time: 4.4

Item: O=C(O)c1ccc(O)cc1O [2,4-Dihydroxybenzoic acid] | LC retention time: 3.99
